Provide the reported Number of dead aphids 3rd of each item.
- Tested on: aphids
- method: Biological test on aphid (spray on cabbage leaf in Petri dishes)
- Type: in vivo
- assaySetup: 3rd Petri dish; 20 aphids on cabbage leaf; 9.6% w/w pesticide reagent diluted 1000 times with water, sprayed; examined after 24 hours
Respond using a number only.

query: Which Number of dead aphids 3rd value is on record for Cc1ccc(S(=O)(=O)N=C2OCCN2Cc2ccc(Cl)nc2)cc1 ?
result: 18

query: Which Number of dead aphids 3rd value is on record for Cc1ccc(S(=O)(=O)N=C2NCCCN2Cc2ccc(Cl)nc2)cc1 ?
result: 17

query: Which Number of dead aphids 3rd value is on record for Cc1ccc(S(=O)(=O)N=C2SCCN2Cc2ccc(Cl)nc2)cc1 ?
result: 18

query: Which Number of dead aphids 3rd value is on record for O=[N+]([O-])/N=C1\NCCN1Cc1ccc(Cl)nc1 [Comparative Example 1, imidachloprid, reference compound] ?
result: 18
